Every entry's value here was drawn from ChEMBL document CHEMBL4270669.

assay: Cmax in Sprague-Dawley rat plasma at 10 mg/kg, po administered as single dose after 30 mins; format: ADME, organism-based; design: dose 10 mg/kg, route oral
measurement type: Cmax

- entry smiles: "Nc1cc(C(F)F)c(-c2nc(N3C4CCC3COC4)nc(N3C4CCC3COC4)n2)cn1"
  measurement type: "Cmax"
  value: "1360 ng/mL"

----------
molecular target: PDE4D2 (3',5'-cyclic-AMP phosphodiesterase 4D) (Homo sapiens, UniProt Q08499); test: Inhibition of recombinant human PDE4D2 at 10 uM using [3H]cAMP/cAMP by scintillation counting method relative to control; details: recombinant human PDE4D2, probe [3H]cAMP/cAMP
Sequence (Q08499 whole entry): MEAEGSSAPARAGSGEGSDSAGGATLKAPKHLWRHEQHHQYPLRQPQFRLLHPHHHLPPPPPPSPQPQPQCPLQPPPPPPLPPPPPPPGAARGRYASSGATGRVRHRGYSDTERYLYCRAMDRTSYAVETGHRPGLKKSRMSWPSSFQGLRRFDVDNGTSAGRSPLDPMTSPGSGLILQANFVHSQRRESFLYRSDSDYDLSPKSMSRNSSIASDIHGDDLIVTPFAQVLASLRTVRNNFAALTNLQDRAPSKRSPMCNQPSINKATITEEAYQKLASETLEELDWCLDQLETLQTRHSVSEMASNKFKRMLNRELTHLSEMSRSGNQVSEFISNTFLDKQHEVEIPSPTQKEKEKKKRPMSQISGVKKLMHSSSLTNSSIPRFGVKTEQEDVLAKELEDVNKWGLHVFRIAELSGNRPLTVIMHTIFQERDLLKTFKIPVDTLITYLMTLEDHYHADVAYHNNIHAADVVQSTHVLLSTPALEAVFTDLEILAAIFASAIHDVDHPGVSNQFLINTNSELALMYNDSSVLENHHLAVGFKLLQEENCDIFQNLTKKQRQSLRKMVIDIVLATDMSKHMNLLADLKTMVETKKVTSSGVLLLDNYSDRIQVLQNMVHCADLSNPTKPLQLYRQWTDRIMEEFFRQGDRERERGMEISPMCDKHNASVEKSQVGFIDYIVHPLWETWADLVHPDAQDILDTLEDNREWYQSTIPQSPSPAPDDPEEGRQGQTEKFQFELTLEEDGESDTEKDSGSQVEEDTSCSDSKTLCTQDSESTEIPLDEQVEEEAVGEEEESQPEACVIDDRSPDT

- entry smiles: "Nc1cc(C(F)F)c(-c2nc(N3C4CCC3COC4)nc(N3C4CCC3COC4)n2)cn1"
  study target: "PDE4D2 (3',5'-cyclic-AMP phosphodiesterase 4D) (Homo sapiens, UniProt Q08499)"
  inhibition at 10 µM: "< 50%"

----------
assay: Thermodynamic solubility of the compound at pH 6.8; type: physicochemical; conditions: buffer, read-out: Therm_solubility

- entry smiles: "Nc1cc(C(F)F)c(-c2nc(N3C4CCC3COC4)nc(N3C4CCC3COC4)n2)cn1"
  readout units: "µM"
  solubility thermodynamic: 33.7

----------
biological target: Phosphatidylinositol 4,5-bisphosphate 3-kinase catalytic subunit alpha isoform (Homo sapiens)
Sequence (P42336 whole entry, canonical isoform): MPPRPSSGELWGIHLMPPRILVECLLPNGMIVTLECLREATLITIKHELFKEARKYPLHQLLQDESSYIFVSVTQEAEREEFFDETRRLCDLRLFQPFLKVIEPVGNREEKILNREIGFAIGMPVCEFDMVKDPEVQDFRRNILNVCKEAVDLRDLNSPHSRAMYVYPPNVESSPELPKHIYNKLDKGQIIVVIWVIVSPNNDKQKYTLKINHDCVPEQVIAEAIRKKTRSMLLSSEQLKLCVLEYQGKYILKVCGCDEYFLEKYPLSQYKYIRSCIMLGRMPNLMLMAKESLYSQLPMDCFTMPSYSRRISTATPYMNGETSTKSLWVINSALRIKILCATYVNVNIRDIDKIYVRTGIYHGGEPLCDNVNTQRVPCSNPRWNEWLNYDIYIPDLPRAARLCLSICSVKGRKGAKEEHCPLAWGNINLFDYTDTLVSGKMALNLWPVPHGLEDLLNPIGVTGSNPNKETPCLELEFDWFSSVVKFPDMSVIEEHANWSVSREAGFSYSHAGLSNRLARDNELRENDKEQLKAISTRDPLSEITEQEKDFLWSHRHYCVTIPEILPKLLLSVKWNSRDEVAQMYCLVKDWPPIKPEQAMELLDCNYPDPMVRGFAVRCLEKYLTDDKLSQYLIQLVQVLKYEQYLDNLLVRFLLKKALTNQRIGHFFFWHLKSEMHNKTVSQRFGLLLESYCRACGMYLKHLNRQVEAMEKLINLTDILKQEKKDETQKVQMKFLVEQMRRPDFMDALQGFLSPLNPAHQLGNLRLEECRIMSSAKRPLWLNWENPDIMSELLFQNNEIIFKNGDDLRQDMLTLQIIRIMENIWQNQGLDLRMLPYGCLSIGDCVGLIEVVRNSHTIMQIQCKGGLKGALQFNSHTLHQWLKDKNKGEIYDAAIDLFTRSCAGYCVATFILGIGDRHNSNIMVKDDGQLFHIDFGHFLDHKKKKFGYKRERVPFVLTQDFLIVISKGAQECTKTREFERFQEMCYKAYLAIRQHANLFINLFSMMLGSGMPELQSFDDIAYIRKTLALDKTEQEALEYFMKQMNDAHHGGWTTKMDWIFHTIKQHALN
Decide using Ki alone. Strictly below 70 nM: fulfilled. Equal to or above 70 nM: not fulfilled.

- entry smiles: "Nc1cc(C(F)(F)F)c(-c2nc(N3CCOCC3)cc(N3CCOCC3)n2)cn1"
  category: "fulfilled"
- entry smiles: "Nc1cc(C(F)F)c(-c2nc(N3C[C@@H]4C[C@H]3CO4)nc(N3C[C@@H]4C[C@H]3CO4)n2)cn1"
  category: "not fulfilled"
- entry smiles: "Nc1cc(CO)c(-c2nc(N3CCOCC3)nc(N3CCOCC3)n2)cn1"
  category: "not fulfilled"
- entry smiles: "Nc1cc(C(F)F)c(-c2nc(N3CCOCC3)nc(N3CC4CCC(C3)O4)n2)cn1"
  category: "fulfilled"
- entry smiles: "COc1cc(N)ncc1-c1nc(N2CCOCC2)nc(N2CCOCC2)n1"
  category: "not fulfilled"
- entry smiles: "CC[C@@H]1COCCN1c1nc(-c2cnc(N)cc2C(F)F)nc(N2CCOC[C@H]2CC)n1"
  category: "fulfilled"
- entry smiles: "Nc1cc(C(F)F)c(-c2nc(N3C4COCC3C4)nc(N3C4COCC3C4)n2)cn1"
  category: "not fulfilled"
- entry smiles: "COC(OC)c1cc(N)ncc1-c1nc(N2CCOCC2)nc(N2CCOCC2)n1"
  category: "not fulfilled"
- entry smiles: "Nc1cc(C(F)F)c(-c2nc(N3CCOCC34CCC4)nc(N3CCOCC34CCC4)n2)cn1"
  category: "not fulfilled"
- entry smiles: "Nc1cc(C(F)F)c(-c2nc(N3C4CCCC3COC4)nc(N3C4CCCC3COC4)n2)cn1"
  category: "not fulfilled"
- entry smiles: "Nc1cc(C(F)F)c(-c2cc(N3CCOCC3)nc(N3CCOCC3)n2)cn1"
  category: "fulfilled"
- entry smiles: "Nc1cc(C(F)F)c(-c2nc(N3C4CCC3COC4)nc(N3C4CCC3COC4)n2)cn1"
  category: "not fulfilled"
- entry smiles: "Nc1cc(C(F)F)c(-c2cc(N3C4CCC3COC4)nc(N3C4CCC3COC4)n2)cn1"
  category: "not fulfilled"
- entry smiles: "C[C@@H]1COC[C@@H](C)N1c1nc(-c2cnc(N)cc2C(F)F)nc(N2[C@H](C)COC[C@H]2C)n1"
  category: "not fulfilled"
- entry smiles: "C[C@@H]1COCCN1c1nc(-c2cnc(N)cc2C(F)F)nc(N2CCOCC2)n1"
  category: "fulfilled"
